# test.name: PK study in non-human primates, single sc dose 5 nmol/kg, plasma ELISA
# experimental.context: monkey, single sc dose 5 nmol/kg
# Lookup of reported AUC0-96 h keyed by entry
State the answer as a number, implicitly in µM·h.

[[record]]
molecule = "MLC089: fusion polypeptide SEQ ID NO: 379 conjugated with Moiety B at 39C of Linker (conjugate, Moiety B conjugated at linker Cys39) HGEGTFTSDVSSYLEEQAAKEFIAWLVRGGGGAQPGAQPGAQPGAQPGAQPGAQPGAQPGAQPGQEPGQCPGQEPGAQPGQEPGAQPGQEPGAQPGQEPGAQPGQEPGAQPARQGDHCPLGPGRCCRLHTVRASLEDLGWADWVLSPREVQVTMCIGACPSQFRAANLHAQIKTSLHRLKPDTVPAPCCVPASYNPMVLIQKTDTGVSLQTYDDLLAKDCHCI"
measured_property = "AUC0-96 h"
number = 3.413


## Task Any idea what its AUC0-96 h is? The molecule is MLC004: fusion polypeptide SEQ ID NO: 251 conjugated with Moiety A at 26K of GLP-1 (conjugate, Moiety A conjugated at K26) HGEGTFTSDVSSYLEEQAAKEFIAWLVRGGGGQEPGAQPGQEPGAQPGQEPGAQPGQEPGAQPGQEPGAQPGQEPGAQPGAQPGAQPGAQPGAQPGAQPGAQPGAQPGAQPARQGDHCPLGPGRCCRLHTVRASLEDLGWADWVLSPREVQVTMCIGACPSQFRAANLHAQIKTSLHRLRPDTVPAPCCVPASYNPMVLIQRTDTGVSLQTYDDLLARDCHCI
## Result 0.79
